Molecular target: xanthine oxidase (XO) (Bos taurus, UniProt P80457)
Sequence (P80457 2-1332 limits assumed): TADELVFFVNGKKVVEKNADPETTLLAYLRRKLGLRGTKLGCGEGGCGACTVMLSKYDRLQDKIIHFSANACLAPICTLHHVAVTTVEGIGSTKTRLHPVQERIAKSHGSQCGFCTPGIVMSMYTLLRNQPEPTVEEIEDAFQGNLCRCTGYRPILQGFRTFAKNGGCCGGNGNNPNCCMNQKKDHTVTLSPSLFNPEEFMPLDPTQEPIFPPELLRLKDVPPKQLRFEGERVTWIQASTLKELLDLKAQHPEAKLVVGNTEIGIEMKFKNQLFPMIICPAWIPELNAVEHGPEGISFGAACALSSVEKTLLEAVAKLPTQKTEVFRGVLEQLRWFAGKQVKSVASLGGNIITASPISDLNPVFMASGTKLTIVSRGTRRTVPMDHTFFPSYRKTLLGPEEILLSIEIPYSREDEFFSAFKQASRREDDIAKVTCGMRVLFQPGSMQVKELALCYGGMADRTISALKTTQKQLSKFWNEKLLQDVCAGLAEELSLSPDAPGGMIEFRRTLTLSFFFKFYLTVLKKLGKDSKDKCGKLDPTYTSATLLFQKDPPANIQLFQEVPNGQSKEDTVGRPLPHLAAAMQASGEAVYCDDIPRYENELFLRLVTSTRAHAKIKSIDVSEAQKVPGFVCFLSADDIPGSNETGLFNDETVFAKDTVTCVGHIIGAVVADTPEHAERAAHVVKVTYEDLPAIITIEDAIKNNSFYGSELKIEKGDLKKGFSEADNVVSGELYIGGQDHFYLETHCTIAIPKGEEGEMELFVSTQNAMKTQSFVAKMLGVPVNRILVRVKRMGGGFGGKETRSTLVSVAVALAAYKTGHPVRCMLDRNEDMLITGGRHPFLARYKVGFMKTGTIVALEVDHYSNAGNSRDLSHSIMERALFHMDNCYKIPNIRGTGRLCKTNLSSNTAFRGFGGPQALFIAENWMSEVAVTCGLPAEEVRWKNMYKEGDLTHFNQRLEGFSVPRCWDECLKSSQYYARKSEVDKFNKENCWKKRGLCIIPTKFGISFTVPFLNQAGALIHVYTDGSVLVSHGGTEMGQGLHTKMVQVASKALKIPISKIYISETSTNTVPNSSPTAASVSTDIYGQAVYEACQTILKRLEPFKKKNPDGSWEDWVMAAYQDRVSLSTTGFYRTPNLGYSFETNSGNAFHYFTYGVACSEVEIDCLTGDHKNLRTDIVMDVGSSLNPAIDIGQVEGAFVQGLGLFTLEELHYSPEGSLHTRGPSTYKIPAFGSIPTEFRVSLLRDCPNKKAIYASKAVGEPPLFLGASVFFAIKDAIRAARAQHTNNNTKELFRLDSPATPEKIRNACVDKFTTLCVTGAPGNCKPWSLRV
Experiment: Xanthine oxidase inhibitory activity
reported.endpoint: pEC50
Remember, pEC50 is on a log scale: it is -log10 of the molar concentration.

The compound identified as C[C@@H]1O[C@@H](OC[C@H]2O[C@@H](Oc3c(-c4ccc(O)c(O)c4)oc4cc(O)cc(O)c4c3=O)[C@H](O)[C@@H](O)[C@@H]2O)[C@H](O)[C@H](O)[C@H]1O registered its pEC50 at 4.76

Ref: paper PMC4660506
